Reported K values for a set of molecules
# Target Entity: cAMP-dependent protein kinase catalytic subunit alpha (Homo sapiens, UniProt P17612)
# Assay Protocol: Displacement of ARC-1063 fluorescent probe from recombinant human PKAC-alpha assessed as binding constant (kon) preincubated for 1 hr followed by photoluminescent probe addition by time-gated luminescence intensity based assay

Worked set:
{"columns": ["Chemical Smiles", "K"],
 "data": [
  ["CC[C@H](C)[C@H](NC(=O)CCC(=O)N[C@@H](CCCCNC(=O)[C@@H](CCCNC(=N)N)NC(=O)CCCCCCCC(=O)N1CCN(c2ncnc3[nH]ccc23)CC1)C(N)=O)C(=O)NCC(C)=O", "3.3 10^7/M/s"],
  ["CC[C@H](C)[C@H](NC(=O)CCC(=O)N[C@@H](CCCCNC(=O)[C@@H](CCCNC(=N)N)NC(=O)CCCCCCCC(=O)N1CCN(c2ncnc3[nH]ccc23)CC1)C(=O)N[C@H](CCCNC(=N)N)C(=O)N[C@H](CCCNC(=N)N)C(N)=O)C(=O)NCC(C)=O", "1.4 10^8/M/s"],
  ["CC[C@H](C)[C@H](NC(=O)CCC(=O)N[C@@H](CCCCNC(=O)[C@@H](CCCNC(=N)N)NC(=O)CCCCCCCC(=O)N1CCN(c2ncnc3[nH]ccc23)CC1)C(=O)N[C@H](CCCNC(=N)N)C(=O)N[C@H](CCCNC(=N)N)C(=O)N[C@H](CCCNC(=N)N)C(N)=O)C(=O)NCC(C)=O", "2.2 10^8/M/s"]
]}

// query For the molecule `CC[C@H](C)[C@H](NC(=O)CCC(=O)N[C@@H](CCCCNC(=O)[C@@H](CCCNC(=N)N)NC(=O)CCCCCCCC(=O)N1CCN(c2ncnc3[nH]ccc23)CC1)C(=O)N[C@H](CCCNC(=N)N)C(N)=O)C(=O)NCC(C)=O` , what K is on record?
// result 3.8 10^7/M/s

---

# Target Entity: cAMP-dependent protein kinase catalytic subunit alpha (Homo sapiens, UniProt P17612)
# Assay Protocol: Binding affinity to human recombinant PKAC-alpha assessed as inactivation constant incubated for 1 hr by time-gated luminescence intensity based displacement assay
Reported Kinact values for a set of compounds

Worked set:
{"columns": ["Chemical Smiles", "Kinact"],
 "data": [
  ["CC[C@H](C)[C@H](NC(=O)CCC(=O)N[C@@H](CCCCNC(=O)[C@@H](CCCNC(=N)N)NC(=O)CCCCCCCC(=O)N1CCN(c2ncnc3[nH]ccc23)CC1)C(=O)N[C@H](CCCNC(=N)N)C(=O)N[C@H](CCCNC(=N)N)C(N)=O)C(=O)NCC(=O)CF", "6.1 10^-4/s"],
  ["CC[C@H](C)[C@H](NC(=O)CCC(=O)N[C@@H](CCCCNC(=O)[C@@H](CCCNC(=N)N)NC(=O)CCCCCCCC(=O)N1CCN(c2ncnc3[nH]ccc23)CC1)C(=O)N[C@H](CCCNC(=N)N)C(=O)N[C@H](CCCNC(=N)N)C(=O)N[C@H](CCCNC(=N)N)C(N)=O)C(=O)NCC(=O)CF", "5.1 10^-4/s"],
  ["CC[C@H](C)[C@H](NC(=O)CCC(=O)N[C@@H](CCCCNC(=O)[C@@H](CCCNC(=N)N)NC(=O)CCCCCCCC(=O)N1CCN(c2ncnc3[nH]ccc23)CC1)C(=O)N[C@H](CCCNC(=N)N)C(N)=O)C(=O)NCC(=O)CF", "7.7 10^-5/s"]
]}

// query For the compound `CC[C@H](C)[C@H](NC(=O)CCC(=O)N[C@@H](CCCCNC(=O)[C@@H](CCCNC(=N)N)NC(=O)CCCCCCCC(=O)N1CCN(c2ncnc3[nH]ccc23)CC1)C(N)=O)C(=O)NCC(=O)CF` , what Kinact is on record?
// result 3.3 10^-5/s
